experiment: Equilibrium solubility of compound in FaSSIF at pH 6.5 using amorphous form of sample incubated for 2 to 5 days by HPLC analysis; assay type: ADME; settings: time 2-5 day
measurement.kind: solubility thermodynamic (µg/mL)
// return numeric value only (unit: µg/mL, not printed)

Consider the reported solubility thermodynamic for these compounds:
>  <mol>
CCn1c(CO)nn(-c2cc3c(C(C)C)cn(-c4ccccc4C(F)(F)F)c(=O)c3cc2F)c1=O

>  <measure.unit>
µg/mL

>  <numeric.result>
97

$$$$
>  <mol>
CCn1c(CO)nn(-c2cc3c(C(C)C)cn(-c4c(C)cnc(OC)c4Cl)c(=O)c3cc2F)c1=O

>  <measure.unit>
µg/mL

>  <numeric.result>
16

$$$$

Now for another entry.
Ask: Entry under review: CCn1c(CO)nn(-c2cc3c([C@@H](C)C(F)(F)F)cn(-c4ccccc4C)c(=O)c3cc2F)c1=O . Reported solubility thermodynamic?
Result: 41

---

experiment: Metabolic stability in dog liver microsomes assessed as half life incubated upto 60 mins in presence of NADPH by LC-MS/MS analysis; type: ADME, Canis lupus familiaris, Microsome
measurement.kind: half-life (min)
Report the value in min with no unit label.

Ask: Look at this molecule and give its reported half-life. CCn1c(CO)nn(-c2cc3c(C(C)C)cn(-c4ccccc4C)c(=O)c3cc2F)c1=O
Result: 57.5

---

experiment: Metabolic stability in mouse liver microsomes assessed as half life incubated upto 60 mins in presence of NADPH by LC-MS/MS analysis; format: ADME, Microsome
measurement.kind: half-life

Ask: Param item = CCn1c(CO)nn(-c2cc3c(C(C)C)cn(-c4ccc(F)cc4C)c(=O)c3cc2F)c1=O ; retrieve measured half-life.
Result: > 3 h

Ask: Consider next the compound CCn1c(CO)nn(-c2cc3c([C@H](C)C(F)(F)F)cn(-c4ccccc4C)c(=O)c3cc2F)c1=O in the same way.
Result: > 3 h

Ask: Check CCn1c(CO)nn(-c2cc3c(C(C)C)cn(-c4ccccc4C)c(=O)c3cc2F)c1=O too.
Result: > 3 h

---

assay: Equilibrium solubility of compound in SGF at pH 1 using crystalline form incubated for 2 to 5 days by HPLC analysis; type: ADME; conditions: time 2-5 day
measurement.kind: solubility thermodynamic (µg/mL)
The figure you give is taken to be in µg/mL; do not add the unit.

Ask: May I ask what solubility thermodynamic has been recorded for CCn1c(CO)nn(-c2cc3c(C(C)C)cn(-c4ccccc4C)c(=O)c3cc2F)c1=O ?
Result: 25

---

test: Oral bioavailability in cynomolgus monkey at 10 mg/kg; assay type: ADME, organism-based, Macaca fascicularis; conditions: in vivo
measurement.kind: bioavailability (%)
Please reply with the bare figure in % and do not write the unit itself.

Ask: Requested read-out: bioavailability. Entry: CCn1c(CO)nn(-c2cc3c(C(C)C)cn(-c4ccccc4C)c(=O)c3cc2F)c1=O
Result: 88

---

biological target: Dihydroorotate dehydrogenase (quinone), mitochondrial (Homo sapiens, UniProt Q02127); assay: Binding affinity to recombinant human DHODH assessed as dissociation constant by surface plasmon resonance assay
Sequence (Q02127 whole entry): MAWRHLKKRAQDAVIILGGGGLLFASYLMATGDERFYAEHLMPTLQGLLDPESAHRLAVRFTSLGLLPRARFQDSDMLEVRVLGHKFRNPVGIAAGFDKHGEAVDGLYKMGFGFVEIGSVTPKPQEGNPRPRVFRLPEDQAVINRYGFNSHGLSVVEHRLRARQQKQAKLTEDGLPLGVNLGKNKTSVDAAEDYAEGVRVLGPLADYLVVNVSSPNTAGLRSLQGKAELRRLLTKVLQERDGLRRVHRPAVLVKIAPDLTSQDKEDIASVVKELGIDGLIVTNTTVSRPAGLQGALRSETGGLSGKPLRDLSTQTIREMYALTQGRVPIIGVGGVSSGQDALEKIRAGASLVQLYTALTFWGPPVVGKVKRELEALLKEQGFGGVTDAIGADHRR
measurement.kind: Kd (nM)
Answer format: numeric, nM implied, no suffix.

Ask: Notebook: pull reported Kd for Dihydroorotate dehydrogenase (quinone), mitochondrial (Homo sapiens, UniProt Q02127), entry CCn1c(CO)nn(-c2cc3c(C(C)C)cn(-c4ccccc4C)c(=O)c3cc2F)c1=O
Result: 2.22

---

Let's look at some compounds and their measured bioavailability.
experiment: Oral bioavailability in C57BL mouse at 10 mg/kg measured upto 24 hrs by LC-MS/MS analysis; assay type: ADME, organism-based; conditions: in vivo
Just the number please, in %, no unit attached.

These solved cases illustrate the format of a correct answer.
>  <mol>
CCn1c(CO)nn(-c2cc3c([C@@H](C)C(F)(F)F)cn(-c4ccccc4C)c(=O)c3cc2F)c1=O

>  <bioavailability [%]>
98

$$$$
>  <mol>
CCn1c(CO)nn(-c2cc3c(C(C)C)cn(-c4ccccc4C(F)(F)F)c(=O)c3cc2F)c1=O

>  <bioavailability [%]>
127

$$$$
>  <mol>
CCn1c(CO)nn(-c2cc3c(C(C)C)cn(-c4c(C)cnc(OC)c4Cl)c(=O)c3cc2F)c1=O

>  <bioavailability [%]>
109

$$$$

Ask: Which bioavailability is listed for CCn1c(CO)nn(-c2cc3c(C(C)C)cn(-c4c(F)cccc4Cl)c(=O)c3cc2F)c1=O ?
Result: 135

Ask: // same read-out, input: CCn1c(CO)nn(-c2cc3c(C(C)C)cn(-c4ccccc4C)c(=O)c3cc2F)c1=O
Result: 125

---

experiment: Half life in monkey hepatocyte; assay type: ADME, cell-based, Macaca mulatta; conditions: rhesus monkey, hepatocytes
measurement.kind: half-life

Ask: Record request: half-life value, item CCn1c(CO)nn(-c2cc3c(C(C)C)cn(-c4ccccc4C)c(=O)c3cc2F)c1=O
Result: > 6.18 h

---

test: Clearance in cynomolgus monkey at 1 mg/kg,iv; type: ADME, organism-based, Macaca fascicularis; conditions: in vivo
measurement.kind: clearance
Please make sure the unit comes right after the number.

Ask: Value lookup for clearance; key = CCn1c(CO)nn(-c2cc3c(C(C)C)cn(-c4ccccc4C)c(=O)c3cc2F)c1=O
Result: 2.4 mL/min/kg

---

experiment: Half life in human hepatocyte; assay type: ADME, cell-based; settings: hepatocytes
measurement.kind: half-life

Ask: Fill blank: measured half-life of the compound CCn1c(CO)nn(-c2cc3c(C(C)C)cn(-c4ccccc4C)c(=O)c3cc2F)c1=O is ____.
Result: > 6.18 h

---

experiment: Tmax in C57BL mouse at […] measured upto 24 hrs by LC-MS/MS analysis; type: ADME, organism-based; details: in vivo
measurement.kind: Tmax (h)
Quick note: give the figure in h, leave out the unit.

Illustrative cases are given below, each with its answer.
>  <mol>
CCn1c(CO)nn(-c2cc3c(C(C)C)cn(-c4c(F)cccc4Cl)c(=O)c3cc2F)c1=O

>  <Tmax (h)>
0.83

$$$$
>  <mol>
CCn1c(CO)nn(-c2cc3c(C(C)C)cn(-c4ccccc4C)c(=O)c3cc2F)c1=O

>  <Tmax (h)>
1.7

$$$$
>  <mol>
CCn1c(CO)nn(-c2cc3c([C@@H](C)C(F)(F)F)cn(-c4ccccc4C)c(=O)c3cc2F)c1=O

>  <Tmax (h)>
1.5

$$$$
>  <mol>
CCn1c(CO)nn(-c2cc3c(C(C)C)cn(-c4ccccc4C(F)(F)F)c(=O)c3cc2F)c1=O

>  <Tmax (h)>
1.3

$$$$

Then this molecule:
Ask: Entry CCn1c(CO)nn(-c2cc3c(C(C)C)cn(-c4c(C)cnc(OC)c4Cl)c(=O)c3cc2F)c1=O : reported Tmax = ?
Result: 1.5

---

test: Half life in cynomolgus monkey at 1 mg/kg,iv; type: ADME, organism-based, Macaca fascicularis; settings: in vivo
measurement.kind: half-life (h)
Record the value in h, omitting the unit from your answer.

Ask: Look up half-life: CCn1c(CO)nn(-c2cc3c(C(C)C)cn(-c4ccccc4C)c(=O)c3cc2F)c1=O
Result: 6.4

---

target: Kappa-type opioid receptor (Homo sapiens, UniProt P41145)
Sequence (P41145 whole entry): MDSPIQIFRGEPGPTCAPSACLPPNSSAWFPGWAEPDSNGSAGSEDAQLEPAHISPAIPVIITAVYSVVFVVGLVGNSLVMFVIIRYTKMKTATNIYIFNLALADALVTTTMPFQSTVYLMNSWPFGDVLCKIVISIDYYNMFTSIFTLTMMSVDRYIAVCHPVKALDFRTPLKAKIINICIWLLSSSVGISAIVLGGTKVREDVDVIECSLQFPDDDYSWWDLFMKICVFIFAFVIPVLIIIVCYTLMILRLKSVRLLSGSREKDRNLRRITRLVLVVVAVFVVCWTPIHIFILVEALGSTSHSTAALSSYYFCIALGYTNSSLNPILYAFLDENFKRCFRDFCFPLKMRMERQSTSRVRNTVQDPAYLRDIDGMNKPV
measurement.kind: IC50

Ask: Request: IC50, test system Kappa-type opioid receptor (Homo sapiens, UniProt P41145), entry CCn1c(CO)nn(-c2cc3c(C(C)C)cn(-c4ccccc4C)c(=O)c3cc2F)c1=O
Result: 14 µM

---

Catalogue of solubility thermodynamic values
assay: Equilibrium solubility of compound in PBS at pH 7 incubated for 2 to 5 days by HPLC analysis; format: physicochemical; conditions: time 2-5 day
Return type: number; implicit unit µM.

Answered cases to consult:
>  <mol>
CCn1c(CO)nn(-c2cc3c(C(C)C)cn(-c4ccccc4F)c(=O)c3cc2F)c1=O

>  <measurement.kind>
solubility thermodynamic

>  <measure.unit>
µM

>  <numeric.result>
19

$$$$
>  <mol>
CCn1c(CO)nn(-c2cc3c(C(C)C)cn(-c4ccccc4OC)c(=O)c3cc2F)c1=O

>  <measurement.kind>
solubility thermodynamic

>  <measure.unit>
µM

>  <numeric.result>
20

$$$$
>  <mol>
CCn1c(CO)nn(-c2cc3c(C(C)C)cn(-c4cccc(F)c4C)c(=O)c3cc2F)c1=O

>  <measurement.kind>
solubility thermodynamic

>  <measure.unit>
µM

>  <numeric.result>
189

$$$$
>  <mol>
CCn1c(CO)nn(-c2cc3c(C(C)C)cn(-c4cc(F)ccc4C)c(=O)c3cc2F)c1=O

>  <measurement.kind>
solubility thermodynamic

>  <measure.unit>
µM

>  <numeric.result>
30

$$$$
>  <mol>
CCc1ccccc1-n1cc(C(C)C)c2cc(-n3nc(CO)n(CC)c3=O)c(F)cc2c1=O

>  <measurement.kind>
solubility thermodynamic

>  <measure.unit>
µM

>  <numeric.result>
157

$$$$
>  <mol>
CCn1c(CO)nn(-c2cc3c(C(C)C)cn(-c4ccccc4C)c(=O)c3cc2F)c1=O

>  <measurement.kind>
solubility thermodynamic

>  <measure.unit>
µM

>  <numeric.result>
371

$$$$
>  <mol>
CCn1c(CO)nn(-c2cc3c(C(C)C)cn(-c4ccc(F)cc4C)c(=O)c3cc2F)c1=O

>  <measurement.kind>
solubility thermodynamic

>  <measure.unit>
µM

>  <numeric.result>
266

$$$$
>  <mol>
CCn1c(CO)nn(-c2cc3c(C(C)C)cn(-c4c(C)cnc(OC)c4Cl)c(=O)c3cc2F)c1=O

>  <measurement.kind>
solubility thermodynamic

>  <measure.unit>
µM

>  <numeric.result>
21

$$$$
>  <mol>
CCn1c(CO)nn(-c2cc3c(C(C)C)cn(-c4c(C)cccc4F)c(=O)c3cc2F)c1=O

>  <measurement.kind>
solubility thermodynamic

>  <measure.unit>
µM

>  <numeric.result>
24

$$$$
>  <mol>
CCn1c(CO)nn(-c2cc3c([C@H](C)C(F)(F)F)cn(-c4ccccc4C)c(=O)c3cc2F)c1=O

>  <measurement.kind>
solubility thermodynamic

>  <measure.unit>
µM

>  <numeric.result>
180

$$$$

Ask: # get_value(readout='solubility thermodynamic', item= CCn1c(CO)nn(-c2cc3c(C(C)C)cn(-c4ccccc4C(F)F)c(=O)c3cc2F)c1=O )
Result: 11

Ask: Likewise for CCn1c(CO)nn(-c2cc3c(C(C)C)cn(-c4ccccc4Cl)c(=O)c3cc2F)c1=O ?
Result: 155

Ask: // next record CCn1c(CO)nn(-c2cc3c(C(C)C)cn(-c4ccccc4C(F)(F)F)c(=O)c3cc2F)c1=O
Result: 39

Ask: Consider next the compound CCn1c(CO)nn(-c2cc3c([C@@H](C)C(F)(F)F)cn(-c4ccccc4C)c(=O)c3cc2F)c1=O in the same way.
Result: 181
